assayedSystem: B. taurus α-1,3-GalT (Bos taurus)
Construct: made in house
assayOverview: Donor kinetics of UDP-Gal derivatives with GalT, HPLC
Assay type: biochemical
testContext: MnCl2 20 mM, MOPS pH 7.2, 37° C.
Below, each entry is listed alongside its reported Km.
Expressed in µM, but write only the number.

Field: example entries. Status: answers known.
[[record]]
molecule = "O=Cc1ccc(-c2cn([C@@H]3O[C@H](COP(=O)(O)OP(=O)(O)O[C@H]4O[C@H](CO)[C@H](O)[C@H](O)[C@H]4O)[C@@H](O)[C@H]3O)c(=O)[nH]c2=O)s1"
measurementname = "Km"
resultunits = "µM"
quantitativeresult = 13

[[record]]
molecule = "O=c1[nH]c(=O)n([C@@H]2O[C@H](COP(=O)(O)OP(=O)(O)O[C@H]3O[C@H](CO)[C@H](O)[C@H](O)[C@H]3O)[C@@H](O)[C@H]2O)cc1-c1ccccc1"
measurementname = "Km"
resultunits = "µM"
quantitativeresult = 96

[[record]]
molecule = "O=c1[nH]c(=O)n([C@@H]2O[C@H](COP(=O)(O)OP(=O)(O)O[C@H]3O[C@H](CO)[C@H](O)[C@H](O)[C@H]3O)[C@@H](O)[C@H]2O)cc1-c1ccco1"
measurementname = "Km"
resultunits = "µM"
quantitativeresult = 69


Okay, next one:
q: Name the reported Km value associated with the molecule "COc1ccc(-c2cn([C@@H]3O[C@H](COP(=O)(O)OP(=O)(O)O[C@H]4O[C@H](CO)[C@H](O)[C@H](O)[C@H]4O)[C@@H](O)[C@H]3O)c(=O)[nH]c2=O)cc1"
a: 82

====

assayedSystem: B. taurus α-1,3-GalT (Bos taurus, UniProt P14769)
Construct: made in house
Sequence (P14769 whole entry): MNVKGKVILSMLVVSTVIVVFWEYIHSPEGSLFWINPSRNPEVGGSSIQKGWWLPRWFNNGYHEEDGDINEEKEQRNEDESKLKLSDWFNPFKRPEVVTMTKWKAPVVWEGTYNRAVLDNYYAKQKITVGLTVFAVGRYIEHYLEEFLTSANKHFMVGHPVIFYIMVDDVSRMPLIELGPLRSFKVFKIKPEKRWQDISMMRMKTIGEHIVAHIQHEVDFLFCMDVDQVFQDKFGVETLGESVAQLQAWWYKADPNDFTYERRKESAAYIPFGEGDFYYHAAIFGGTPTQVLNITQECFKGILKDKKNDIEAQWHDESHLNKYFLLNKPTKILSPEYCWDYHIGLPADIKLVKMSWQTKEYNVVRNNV
assayOverview: Donor kinetics of UDP-Gal derivatives with GalT, HPLC
Assay type: biochemical
testContext: MnCl2 20 mM, MOPS pH 7.2, 37° C.
measurementName: kcat (s⁻¹)
Expressed in s⁻¹, but write only the number.

Field: example entries. Status: answers known.
[[record]]
molecule = "O=c1[nH]c(=O)n([C@@H]2O[C@H](COP(=O)(O)OP(=O)(O)O[C@H]3O[C@H](CO)[C@H](O)[C@H](O)[C@H]3O)[C@@H](O)[C@H]2O)cc1-c1ccccc1"
measurementname = "kcat"
quantitativeresult = 0.0021

[[record]]
molecule = "COc1ccc(-c2cn([C@@H]3O[C@H](COP(=O)(O)OP(=O)(O)O[C@H]4O[C@H](CO)[C@H](O)[C@H](O)[C@H]4O)[C@@H](O)[C@H]3O)c(=O)[nH]c2=O)cc1"
measurementname = "kcat"
quantitativeresult = 0.004

[[record]]
molecule = "O=Cc1ccc(-c2cn([C@@H]3O[C@H](COP(=O)(O)OP(=O)(O)O[C@H]4O[C@H](CO)[C@H](O)[C@H](O)[C@H]4O)[C@@H](O)[C@H]3O)c(=O)[nH]c2=O)s1"
measurementname = "kcat"
quantitativeresult = 0.0019


q: Name the reported kcat value associated with the compound "O=c1[nH]c(=O)n([C@@H]2O[C@H](COP(=O)(O)OP(=O)(O)O[C@H]3O[C@H](CO)[C@H](O)[C@H](O)[C@H]3O)[C@@H](O)[C@H]2O)cc1-c1ccco1"
a: 0.0044
